test system: Huh-7 cells containing HCV Con1 subgenomic replicon (GS4.1 cells); test: HCV Replicon Assay (NS4A ELISA); assay type: cell-based; conditions: Hepatitis C virus, 72 hr, NS4A protein expression by ELISA
assayReadout: EC50

{"compound": "COc1ccc2c(OCCC3NC(=O)N(C)CCCC/C=C\\C4CC4(C(=O)NS(=O)(=O)N4CCOCC4)NC3=O)cc(-c3nc(C(C)C)cs3)nc2c1Cl (stereo not shown)", "testedOn": "Huh-7 cells containing HCV Con1 subgenomic replicon (GS4.1 cells)", "value": "0.1 to 10 µM"}
{"compound": "COc1ccc2c(OCC[C@@H]3NC(=O)N(C)CCCC/C=C\\[C@@H]4C[C@@]4(C(=O)NS(=O)(=O)C4(C)CC4)NC3=O)cc(-c3nc(C(C)C)cs3)nc2c1C", "testedOn": "Huh-7 cells containing HCV Con1 subgenomic replicon (GS4.1 cells)", "value": "< 0.1 µM"}
{"compound": "COc1ccc2c(OCC[C@@H]3NC(=O)N(C)CCCC/C=C\\[C@@H]4C[C@@]4(C(=O)NS(=O)(=O)C4(CC5CC5)CC4)NC3=O)cc(-c3nc(C(C)C)cs3)nc2c1Cl", "testedOn": "Huh-7 cells containing HCV Con1 subgenomic replicon (GS4.1 cells)", "value": "0.1 to 10 µM"}
{"compound": "COc1ccc2c(OCC[C@@H]3NC(=O)N(C)CCCC/C=C\\[C@@H]4C[C@@]4(C(=O)O)NC3=O)cc(-c3ccccc3)nc2c1", "testedOn": "Huh-7 cells containing HCV Con1 subgenomic replicon (GS4.1 cells)", "value": "10 to 1000 µM"}

* * *

Listing: pEC50 of selected compounds
Tested on: Huh-7 cells containing HCV Con1 subgenomic replicon (GS4.1 cells)
Test: HCV Replicon Assay (NS4A ELISA)
Format: cell-based
Details: Hepatitis C virus, 72 hr, NS4A protein expression by ELISA
Description: General procedure: Huh-7 cells containing HCV Con1 subgenomic replicon (GS4.1 cells) were grown in Dulbecco's Modified Eagle Medium (DMEM) supplemented with 10% fetal bovine serum (FBS), 2 mM L-glutamine, 110 mg/L sodium pyruvate, 1X non-essential amino acids, 100 U/mL penicillin-streptomycin, and 0.5 mg/mL G418 (Invitrogen). […] The reaction was stopped after 30 min with 2 N H2SO4, and absorbance was read at 492 nm using Sunrise Tecan spectrophotometer. […]
pEC50: −log10 of the molar value.
assayReadout: pEC50

{"compound": "COc1ccc2c(OCC[C@@H]3NC(=O)N(C)CCCC/C=C\\[C@@H]4C[C@@]4(C(=O)NS(=O)(=O)C4(C)CC4)NC3=O)cc(-n3ccc(C(C)C)n3)nc2c1C", "assayReadout": "pEC50", "value": "> 7.00"}
{"compound": "COc1ccc2c(OCC[C@@H]3NC(=O)N(C)CCCC/C=C\\[C@@H]4C[C@@]4(C(=O)NS(=O)(=O)C4(C)CC4)NC3=O)cc(-c3cc(C(F)(F)F)nn3C)nc2c1C", "assayReadout": "pEC50", "value": "5.00 to 7.00"}
{"compound": "CC(=O)OCC[C@@H]1NC(=O)N(C)CCCC/C=C\\[C@@H]2C[C@@]2(C(=O)NS(=O)(=O)C2CC2)NC1=O", "assayReadout": "pEC50", "value": "< 3.00"}
{"compound": "COc1ccc2c(OCC[C@@H]3NC(=O)N(C)CCCC/C=C\\[C@@H]4C[C@@]4(C(=O)NS(=O)(=O)N4CCC[C@H]4C#N)NC3=O)cc(-c3nc(C(C)C)cs3)nc2c1Cl", "assayReadout": "pEC50", "value": "5.00 to 7.00"}
{"compound": "COc1ccc2c(OCC[C@@H]3NC(=O)N(C)CCCC/C=C\\[C@@H]4C[C@@]4(C(=O)S(=O)(=O)C4(C)CC4)NC3=O)cc(-c3ccn(Cc4ccccc4)n3)nc2c1C", "assayReadout": "pEC50", "value": "5.00 to 7.00"}
{"compound": "COc1ccc2c(OCCC3NC(=O)N(C)CCCC/C=C\\C4CC4(C(=O)NS(=O)(=O)C4(C)CC4)NC3=O)cc(-c3nc(C(C)C)cs3)nc2c1F (stereo not drawn)", "assayReadout": "pEC50", "value": "5.00 to 7.00"}

* * *

target: HCV NS3-NS4A protease (Hepatitis C virus genotype 1a, UniProt P27958)
Sequence (P27958 1027-1208): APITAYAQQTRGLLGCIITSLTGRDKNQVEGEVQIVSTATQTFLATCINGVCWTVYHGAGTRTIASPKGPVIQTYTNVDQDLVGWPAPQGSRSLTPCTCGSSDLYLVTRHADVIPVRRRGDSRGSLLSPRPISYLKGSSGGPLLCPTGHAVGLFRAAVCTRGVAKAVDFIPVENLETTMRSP

{"compound": "COc1ccc2c(OCCC3NC(=O)N(C)CCCC/C=C\\C4CC4(C(=O)NS(=O)(=O)C4(C)CC4)NC3=O)cc(-c3nc(C(C)C)cs3)nc2c1Br (stereo not drawn)", "IC50": "< 0.1 µM"}
{"compound": "C#CC1(S(=O)(=O)NC(=O)C23CC2/C=C\\CCCCN(C)C(=O)NC(CCOc2cc(-c4nc(C(C)C)cs4)nc4c(Cl)c(OC)ccc24)C(=O)N3)CC1 (stereo not drawn)", "IC50": "< 0.1 µM"}
{"compound": "COc1ccc2c(OCC[C@@H]3NC(=O)N(C)CCCC/C=C\\[C@@H]4C[C@@]4(C(=O)NS(=O)(=O)C4CC4)NC3=O)cc(-c3nc(C(C)C)cs3)nc2c1F", "IC50": "< 0.1 µM"}

* * *

// endpoint pIC50 / system HCV NS3-NS4A protease (Hepatitis C virus genotype 1a)
pIC50: −log10 of the molar value.

{"compound": "COc1ccc2c(OCCC3NC(=O)N(C)CCCC/C=C\\C4CC4(C(=O)NS(=O)(=O)C4(F)CC4)NC3=O)cc(-c3nc(C(C)C)cs3)nc2c1Cl (stereo not drawn)", "testedOn": "HCV NS3-NS4A protease (Hepatitis C virus genotype 1a)", "pIC50": "> 7.00"}
{"compound": "COc1ccc2c(OCC[C@@H]3NC(=O)N(C)CCCC/C=C\\[C@@H]4C[C@@]4(C(=O)NS(=O)(=O)C4(C)CC4)NC3=O)cc(-c3cc(C(F)(F)F)nn3C)nc2c1C", "testedOn": "HCV NS3-NS4A protease (Hepatitis C virus genotype 1a)", "pIC50": "> 7.00"}
{"compound": "COc1ccc2c(OCC[C@@H]3NC(=O)N(C)CCCC/C=C\\[C@@H]4C[C@@]4(C(=O)NS(=O)(=O)C4(C)CC4)NC3=O)cc(-c3ccn(CCN4CCOCC4)n3)nc2c1C", "testedOn": "HCV NS3-NS4A protease (Hepatitis C virus genotype 1a)", "pIC50": "> 7.00"}
{"compound": "COc1ccc2c(OCC[C@@H]3NC(=O)N(C)CCCC/C=C\\[C@@H]4C[C@@]4(C(=O)NS(=O)(=O)C4(C)CC4)NC3=O)cc(-c3ccn(CCC(C)C)n3)nc2c1C", "testedOn": "HCV NS3-NS4A protease (Hepatitis C virus genotype 1a)", "pIC50": "> 7.00"}
{"compound": "COc1ccc2c(OCC[C@@H]3NC(=O)N(C)CCCC/C=C\\[C@@H]4C[C@@]4(C(=O)NS(=O)(=O)N4CCC[C@H]4C#N)NC3=O)cc(-c3nc(C(C)C)cs3)nc2c1Cl", "testedOn": "HCV NS3-NS4A protease (Hepatitis C virus genotype 1a)", "pIC50": "5.00 to 7.00"}
{"compound": "COc1ccc2c(OCC[C@@H]3NC(=O)N(C)CCCC/C=C\\[C@@H]4C[C@@]4(C(=O)NS(=O)(=O)C4(C)CC4)NC3=O)cc(-c3nc(C(C)C)cs3)nc2c1Cl", "testedOn": "HCV NS3-NS4A protease (Hepatitis C virus genotype 1a)", "pIC50": "> 7.00"}
{"compound": "COc1ccc2c(OCC[C@@H]3NC(=O)N(C)CCCC/C=C\\[C@@H]4C[C@@]4(C(=O)NS(=O)(=O)C4(C)CC4)NC3=O)cc(-c3nc(C(C)C)cs3)nc2c1C", "testedOn": "HCV NS3-NS4A protease (Hepatitis C virus genotype 1a)", "pIC50": "> 7.00"}
{"compound": "COc1ccc2c(OCC[C@@H]3NC(=O)N(C)CCCC/C=C\\[C@@H]4C[C@@]4(C(=O)NS(=O)(=O)C4CC4)NC3=O)cc(-c3nc(C(C)C)cs3)nc2c1Cl", "testedOn": "HCV NS3-NS4A protease (Hepatitis C virus genotype 1a)", "pIC50": "> 7.00"}
{"compound": "COc1ccc2c(OCCC3NC(=O)N(C)CCCC/C=C\\C4CC4(C(=O)NS(=O)(=O)N(C)C)NC3=O)cc(-c3nc(C(C)C)cs3)nc2c1Cl (stereo not drawn)", "testedOn": "HCV NS3-NS4A protease (Hepatitis C virus genotype 1a)", "pIC50": "> 7.00"}
{"compound": "COc1ccc2c(OCCC3NC(=O)N(C)CCCC/C=C\\C4CC4(C(=O)NS(=O)(=O)C4(C)CC4)NC3=O)cc(-c3nc(C(C)C)cs3)nc2c1F (stereo not drawn)", "testedOn": "HCV NS3-NS4A protease (Hepatitis C virus genotype 1a)", "pIC50": "> 7.00"}
{"compound": "CC(=O)OCC[C@@H]1NC(=O)N(C)CCCC/C=C\\[C@@H]2C[C@@]2(C(=O)NS(=O)(=O)C2CC2)NC1=O", "testedOn": "HCV NS3-NS4A protease (Hepatitis C virus genotype 1a)", "pIC50": "5.00 to 7.00"}
{"compound": "COc1ccc2c(OCC[C@@H]3NC(=O)N(C)CCCC/C=C\\[C@@H]4C[C@@]4(C(=O)NS(=O)(=O)C4(C)CC4)NC3=O)cc(-n3ccc(C(F)(F)F)n3)nc2c1Cl", "testedOn": "HCV NS3-NS4A protease (Hepatitis C virus genotype 1a)", "pIC50": "> 7.00"}
{"compound": "COc1ccc2c(OCC[C@@H]3NC(=O)N(C)CCCC/C=C\\[C@@H]4C[C@@]4(C(=O)NS(=O)(=O)C4CC4)NC3=O)cc(-c3ccccc3)nc2c1", "testedOn": "HCV NS3-NS4A protease (Hepatitis C virus genotype 1a)", "pIC50": "> 7.00"}
{"compound": "CCC1(S(=O)(=O)NC(=O)[C@@]23C[C@H]2/C=C\\CCCCN(C)C(=O)N[C@@H](CCOc2cc(-c4nc(C(C)C)cs4)nc4c(Cl)c(OC)ccc24)C(=O)N3)CC1", "testedOn": "HCV NS3-NS4A protease (Hepatitis C virus genotype 1a)", "pIC50": "> 7.00"}
{"compound": "COc1ccc2c(OCCC3NC(=O)N(C)CCCC/C=C\\C4CC4(C(=O)NS(=O)(=O)C4(C#N)CC4)NC3=O)cc(-c3nc(C(C)C)cs3)nc2c1Cl (stereo not drawn)", "testedOn": "HCV NS3-NS4A protease (Hepatitis C virus genotype 1a)", "pIC50": "> 7.00"}
{"compound": "COc1ccc2c(OCC[C@@H]3NC(=O)N(C)CCCC/C=C\\[C@@H]4C[C@@]4(C(=O)O)NC3=O)cc(-c3ccccc3)nc2c1", "testedOn": "HCV NS3-NS4A protease (Hepatitis C virus genotype 1a)", "pIC50": "5.00 to 7.00"}
{"compound": "COc1ccc2c(OCC[C@@H]3NC(=O)N(C)CCCC/C=C\\[C@@H]4C[C@@]4(C(=O)NS(=O)(=O)C4(C)CC4)NC3=O)cc(-c3nc(C(C)C)cs3)nc2c1", "testedOn": "HCV NS3-NS4A protease (Hepatitis C virus genotype 1a)", "pIC50": "> 7.00"}
{"compound": "COc1ccc2c(OCC[C@@H]3NC(=O)N(C)CCCC/C=C\\[C@@H]4C[C@@]4(C(=O)NS(=O)(=O)C4(C)CC4)NC3=O)cc(-n3ccc(C(C)C)n3)nc2c1Cl", "testedOn": "HCV NS3-NS4A protease (Hepatitis C virus genotype 1a)", "pIC50": "> 7.00"}
{"compound": "COc1ccc2c(OCC[C@@H]3NC(=O)N(C)CCCC/C=C\\[C@@H]4C[C@@]4(C(=O)NS(=O)(=O)C4(I)CC4)NC3=O)cc(-c3nc(C(C)C)cs3)nc2c1C", "testedOn": "HCV NS3-NS4A protease (Hepatitis C virus genotype 1a)", "pIC50": "> 7.00"}
{"compound": "CCn1ccc(-c2cc(OCC[C@@H]3NC(=O)N(C)CCCC/C=C\\[C@@H]4C[C@@]4(C(=O)OS(=O)(=O)C4(C)CC4)NC3=O)c3ccc(OC)c(C)c3n2)n1", "testedOn": "HCV NS3-NS4A protease (Hepatitis C virus genotype 1a)", "pIC50": "> 7.00"}
{"compound": "CCCn1ccc(-c2cc(OCC[C@@H]3NC(=O)N(C)CCCC/C=C\\[C@@H]4C[C@@]4(C(=O)NS(=O)(=O)C4(C)CC4)NC3=O)c3ccc(OC)c(C)c3n2)n1", "testedOn": "HCV NS3-NS4A protease (Hepatitis C virus genotype 1a)", "pIC50": "> 7.00"}
{"compound": "COc1ccc2c(OCC[C@@H]3NC(=O)N(C)CCCC/C=C\\[C@@H]4C[C@@]4(C(=O)NS(=O)(=O)C4(C)CC4)NC3=O)cc(-c3csc(NC(C)C)n3)nc2c1", "testedOn": "HCV NS3-NS4A protease (Hepatitis C virus genotype 1a)", "pIC50": "> 7.00"}
{"compound": "COc1ccc2c(C(=O)OCC[C@@H]3NC(=O)N(C)CCCC/C=C\\[C@@H]4C[C@@]4(C(=O)NS(=O)(=O)C4CC4)NC3=O)cc(-c3ccccc3)nc2c1", "testedOn": "HCV NS3-NS4A protease (Hepatitis C virus genotype 1a)", "pIC50": "5.00 to 7.00"}
{"compound": "COc1ccc2c(OCC[C@@H]3NC(=O)N(C)CCCC/C=C\\[C@@H]4C[C@@]4(C(=O)OS(=O)(=O)C4(C)CC4)NC3=O)cc(-n3ccc(C(F)(F)F)n3)nc2c1C", "testedOn": "HCV NS3-NS4A protease (Hepatitis C virus genotype 1a)", "pIC50": "> 7.00"}
